Values compiled from PubChem BioAssay (NCI).

Reported TGI values for the following compounds.
system: HS 578T breast; assay: NCI tumour cell line growth inhibition, 48 h

# TGI lookup, item CN(C)CCn1c(=O)oc2cc(C(=O)CN3CCOCC3)ccc21
> 100 µM

# TGI lookup, item CCCC(=O)OCC1(CO)C/C(=C/CC(C(C)C)C(C)C)C(=O)O1 (stereo not drawn)
> 100 µM

# TGI lookup, item O=[N+]([O-])c1ccc(/C=N\Nc2ccc([N+](=O)[O-])cn2)cc1
> 100 µM

# TGI lookup, item COc1cc(OC)cc(-n2c(N)c(-c3nc4ccccc4s3)c3ccc([N+](=O)[O-])cc3c2=O)c1
> 100 µM

# TGI lookup, item Cc1ccc(/C=N/Nc2cc(C)c3ccccc3n2)s1
> 100 µM

# TGI lookup, item CSC1=C(C#N)C(=O)N(c2ccc(Cl)cc2)C(=O)C1C#N (stereo not drawn)
> 100 µM

# TGI lookup, item [C-]#[O+].[C-]#[O+].[Ir].[O-]c1ccc2ccccc2c1N=Nc1ccccc1
> 100 µM

# TGI lookup, item COc1ccc2[nH]c3c([N+](=O)[O-])ccc(Cl)c3c(=O)c2c1
> 100 µM

# TGI lookup, item COC(=O)/C=C\[C@@H]1[C@H](C)N1S(=O)(=O)c1ccc(C)cc1 (stereo partly drawn)
> 100 µM

# TGI lookup, item CCc1nc(-n2c(CC)nc3ccccc3c2=O)nc(N)c1-c1ccc(Cl)cc1
> 100 µM

# TGI lookup, item CCC(C(=O)c1cccs1)C(O)(C(F)(F)F)C(F)(F)F (stereo not drawn)
> 100 µM

# TGI lookup, item Cc1ccc(Nc2[nH]c(C(=O)c3ccc(Cl)cc3)c(N)c2C(=S)Nc2ccccc2)nc1
76.2 µM

# TGI lookup, item CN(C)Cc1cc(N=Nc2ccccc2Cl)ccc1O
48.4 µM

# TGI lookup, item CSC1=Nc2c(c(C)c(-c3ccccc3)n2CCCCl)C2=NC(=O)CN12
35 µM

# TGI lookup, item CC(=O)/C=C(/C=N/O)c1ccccc1
> 100 µM

# TGI lookup, item C=CC(=O)NCCOc1cccc(Nc2cc(NCCCNC(=O)C3CCC3)c(Br)cn2)c1
1.7 µM

# TGI lookup, item OC(COc1cccc2ccccc12)CN1CCN(c2ccc(Cl)cc2)CC1 (stereo not drawn)
> 100 µM

###

system: COLO 205 colon; experiment: NCI tumour cell line growth inhibition, 48 h
Reported TGI values for the following compounds.

Examples with answers:
| compound | testSystem | recordedValue |
| --- | --- | --- |
| COCOc1cc(OC)c(Br)cc1C/C(=N/O)C(=O)OC | COLO 205 colon | > 100 µM |
| CN(C)CCn1c(=O)oc2cc(C(=O)CN3CCOCC3)ccc21 | COLO 205 colon | > 100 µM |
| COC(=O)/C=C\[C@@H]1[C@H](C)N1S(=O)(=O)c1ccc(C)cc1 (stereo partly specified) | COLO 205 colon | > 100 µM |
| CC(=O)Nc1ccc(-c2nc3ccccc3s2)cc1Cl | COLO 205 colon | > 100 µM |
| Cc1cc(C(=O)N[C@@H](CCC(=O)O)C(=O)O)sc1CC[C@@H]1CNc2nc(N)[nH]c(=O)c2C1 | COLO 205 colon | > 100 µM |
| C=C(C)C(=O)OC1C(C(C)CCCO)=C(CO)CC2OC(=O)C(=C)C21 (stereo unspecified) | COLO 205 colon | 29.3 µM |

Identify the measured TGI of CCOC(=O)CCSS(=O)(=O)C(F)(F)F for COLO 205 colon.
> 100 µM

Identify the measured TGI of CC(=O)/C=C(/C=N/O)c1ccccc1 for COLO 205 colon.
> 100 µM
